What abundance fitness was measured for each of the following?
B1: WW domain-containing transcription regulator protein 1, residues 116 to 162; numbered along this chain, Q9GZV5 (parent)
chain: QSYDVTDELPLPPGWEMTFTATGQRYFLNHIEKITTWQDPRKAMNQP

# Variants of: B1
# METHOD_SUMMARY: abundance fitness (aPCA) (normalised: wild type 0, dead -1); higher = more abundant; growth selection in yeast, the domain comes from the species named
# STUDY_CONDITIONS: Homo sapiens
Give only the figure.

input: abundance fitness lookup needed for `L11S` , thanks.
output: -0.609

input: abundance fitness lookup needed for `Q24C` , thanks.
output: -0.305

input: abundance fitness lookup needed for `W15M` , thanks.
output: -0.695

input: abundance fitness lookup needed for `N29Q` , thanks.
output: -0.779

input: abundance fitness lookup needed for `K33I` , thanks.
output: -1.01

input: abundance fitness lookup needed for `Q46D` , thanks.
output: 0.058

Where do the numbers come from? From the Human Domainome abundance scans (Beltran et al. 2025).
